Data credit: ChEMBL document CHEMBL1139473

Target: Acetylcholinesterase (Bos taurus)
Sequence (P23795 whole entry): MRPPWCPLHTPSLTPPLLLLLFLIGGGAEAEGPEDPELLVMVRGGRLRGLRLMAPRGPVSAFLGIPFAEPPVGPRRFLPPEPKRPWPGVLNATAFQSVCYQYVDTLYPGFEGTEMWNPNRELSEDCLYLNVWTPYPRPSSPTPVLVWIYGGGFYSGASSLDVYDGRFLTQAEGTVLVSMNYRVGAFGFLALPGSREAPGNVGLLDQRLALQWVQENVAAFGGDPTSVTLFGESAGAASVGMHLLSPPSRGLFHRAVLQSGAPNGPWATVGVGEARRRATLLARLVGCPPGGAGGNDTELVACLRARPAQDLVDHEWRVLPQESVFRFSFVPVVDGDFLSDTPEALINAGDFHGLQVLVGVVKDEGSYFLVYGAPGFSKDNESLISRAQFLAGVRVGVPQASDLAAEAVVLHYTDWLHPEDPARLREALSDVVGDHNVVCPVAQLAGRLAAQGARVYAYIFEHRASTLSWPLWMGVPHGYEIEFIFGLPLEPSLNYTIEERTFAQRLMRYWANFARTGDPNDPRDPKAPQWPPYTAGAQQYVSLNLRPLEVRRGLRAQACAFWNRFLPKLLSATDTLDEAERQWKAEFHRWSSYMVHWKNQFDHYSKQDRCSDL
MEASURE: pIC50
Remember, pIC50 is on a log scale: it is -log10 of the molar concentration.

Here is how some compounds turned out for pIC50.
O=C(CCc1c[nH]c2ccccc12)NCCCCCCCCCCNc1c2c(nc3ccccc13)CCCC2 : 7.66
O=C(/C=C/c1c[nH]c2ccccc12)NCCCCCCNc1c2c(nc3cc(Cl)ccc13)CCCC2 : 7.74
O=C(CCOc1c[nH]c2ccccc12)NCCCCCCNc1c2c(nc3cc(Cl)ccc13)CCCC2 : 9.15
O=C(CCCc1c[nH]c2ccccc12)NCCCCCCNc1c2c(nc3cc(Cl)ccc13)CCCC2 : 9.30

Please report the recorded pIC50 for `Cn1cc(C(=O)NCCCCCCCNc2c3c(nc4cc(Cl)ccc24)CCCC3)c2ccccc21` .
7.96

Please report the recorded pIC50 for `O=C(Cc1c[nH]c2ccc(Br)cc12)NCCCCCCCNc1c2c(nc3cc(Cl)ccc13)CCCC2` .
9.22

Please report the recorded pIC50 for `O=C(CCCc1c[nH]c2ccccc12)NCCCCCNc1c2c(nc3cc(Cl)ccc13)CCCC2` .
9.52

Please report the recorded pIC50 for `O=C(CCOc1c[nH]c2ccccc12)NCCCCCNc1c2c(nc3cc(Cl)ccc13)CCCC2` .
8.82

Please report the recorded pIC50 for `O=C(Cc1c[nH]c2ccccc12)NCCCCCCCNc1c2c(nc3cc(Cl)ccc13)CCCC2` .
9.70

Please report the recorded pIC50 for `N#Cc1ccc2[nH]cc(CCC(=O)NCCCCCCNc3c4c(nc5cc(Cl)ccc35)CCCC4)c2c1` .
9.15

Please report the recorded pIC50 for `O=C(CCOc1c[nH]c2ccccc12)NCCCCCCCNc1c2c(nc3cc(Cl)ccc13)CCCC2` .
8.52
